Target: elk1 (Rattus norvegicus, UniProt Q9QWS8)
Construct: expressed in transfected cells; host or cells: oocytes (Xenopus)
Sequence (Q9QWS8 1-1102): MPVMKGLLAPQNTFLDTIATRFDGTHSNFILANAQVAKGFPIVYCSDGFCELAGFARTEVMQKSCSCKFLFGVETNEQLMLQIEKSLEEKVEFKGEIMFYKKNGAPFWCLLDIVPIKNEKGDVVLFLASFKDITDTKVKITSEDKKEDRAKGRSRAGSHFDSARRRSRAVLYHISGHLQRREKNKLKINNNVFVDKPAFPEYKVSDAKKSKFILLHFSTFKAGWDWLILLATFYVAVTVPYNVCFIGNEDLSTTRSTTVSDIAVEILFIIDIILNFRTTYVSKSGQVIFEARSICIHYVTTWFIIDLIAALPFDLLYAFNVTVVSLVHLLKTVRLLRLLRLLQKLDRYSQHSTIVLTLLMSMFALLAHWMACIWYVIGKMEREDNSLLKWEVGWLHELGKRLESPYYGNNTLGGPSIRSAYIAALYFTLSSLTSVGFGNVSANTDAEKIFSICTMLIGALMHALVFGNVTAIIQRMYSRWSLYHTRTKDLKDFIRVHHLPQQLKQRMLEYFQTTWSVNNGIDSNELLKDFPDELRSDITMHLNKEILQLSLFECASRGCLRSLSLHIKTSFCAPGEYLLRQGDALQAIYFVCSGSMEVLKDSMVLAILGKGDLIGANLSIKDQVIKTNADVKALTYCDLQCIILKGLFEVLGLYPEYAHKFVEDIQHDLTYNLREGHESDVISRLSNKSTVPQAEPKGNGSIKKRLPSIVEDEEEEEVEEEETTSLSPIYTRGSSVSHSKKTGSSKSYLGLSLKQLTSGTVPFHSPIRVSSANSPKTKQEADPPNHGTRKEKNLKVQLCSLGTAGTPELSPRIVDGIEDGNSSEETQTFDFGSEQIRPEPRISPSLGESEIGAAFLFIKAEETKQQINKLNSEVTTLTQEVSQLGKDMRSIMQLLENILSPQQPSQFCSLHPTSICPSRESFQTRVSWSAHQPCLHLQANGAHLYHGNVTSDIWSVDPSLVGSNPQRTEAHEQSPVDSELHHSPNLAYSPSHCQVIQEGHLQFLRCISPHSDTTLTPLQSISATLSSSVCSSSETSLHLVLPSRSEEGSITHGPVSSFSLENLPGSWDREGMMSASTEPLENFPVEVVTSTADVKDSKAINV
Experiment: Blockade of cloned elk1 channel in oocytes
Type: cell-based
Conditions: oocytes
measured_quantity: IC50

Query string: Data request, read-out IC50, for O=C1c2ccccc2C(Cc2ccncc2)(Cc2ccncc2)c2ccccc21
Result string: > 100 µM

---

Target: KCNQ2 + KCNQ3 (UniProt O43526+O88944, DEL417-446)
Construct: Full-length KCNQ2 cDNAs were amplified from adult human brain cDNA; Multiple full-length cDNA clones were amplified in independent PCR reactions from rat SCG cDNA
Assay: Blockade of KCNQ2+KCNQ3 channels expressed in Xenopus oocytes
Conditions: co-injection of KCNQ2 and KCNQ3 mRNAs, read-out: KD for TEA block of KCNQ2+KCNQ3 channels
Description: Method: Full-length KCNQ2 cDNAs were amplified from adult human brain cDNA using the following primers ([…], […]) with the Expand Fidelity enzyme mixture (Boehringer Mannheim, Indianapolis). […] This region is also alternatively spliced in the KCNQ2 cDNA clone described by Biervert et al. (1998). […] Holding potential was −60 mV and the cell was repetitively depolarized to −30 mV for 1 minute to reach steady-state blockade. Tail currents were recorded at −50 mV. […]
measured_quantity: pKd
Give bare numbers, as −log10 of the molar value.

Query string: Data request, read-out pKd, for CC[N+](CC)(CC)CC [TEA, tetraethylammonium]
Result string: 2.46
